tested on: Saccharomyces cerevisiae; test: protein stability index of tFT-peptide fusion (C-terminal peptide) (PSI (0-1 scale)); higher = more stable (slower turnover); conditions: genetic background: wild type; temperature: 30 C;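 also: PSI is a weighted mean of sequencing reads over stability bins, variants kept only with over 10 reads, mCherry proximal and sfGFP distal, peptide attached via GGGS linker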
Measured metric: protein stability index
Number, no unit, nothing else.

Sequence string: PPAVDSSPRSRD
protein stability index: 0.715

Sequence string: LCYFFFISLFLG
protein stability index: 0.328

get_value(item= FELSVSVFQSVV , readout=protein stability index) returns 0.338

// protein stability index value for PRGSSRSTFFLF : 0.603

Per the record, PGRSRGGPPERR has protein stability index of 0.639

For KVREGEARKEST the sequence record lists protein stability index as 0.683

Lab book: protein stability index of AFFGIYLICFIV noted as 0.207

For reference, reported protein stability index for VWVCGLGGGVLG stands at 0.777
